Target: Lysosomal acid glucosylceramidase (Homo sapiens, UniProt P04062)
Sequence (P04062 whole entry): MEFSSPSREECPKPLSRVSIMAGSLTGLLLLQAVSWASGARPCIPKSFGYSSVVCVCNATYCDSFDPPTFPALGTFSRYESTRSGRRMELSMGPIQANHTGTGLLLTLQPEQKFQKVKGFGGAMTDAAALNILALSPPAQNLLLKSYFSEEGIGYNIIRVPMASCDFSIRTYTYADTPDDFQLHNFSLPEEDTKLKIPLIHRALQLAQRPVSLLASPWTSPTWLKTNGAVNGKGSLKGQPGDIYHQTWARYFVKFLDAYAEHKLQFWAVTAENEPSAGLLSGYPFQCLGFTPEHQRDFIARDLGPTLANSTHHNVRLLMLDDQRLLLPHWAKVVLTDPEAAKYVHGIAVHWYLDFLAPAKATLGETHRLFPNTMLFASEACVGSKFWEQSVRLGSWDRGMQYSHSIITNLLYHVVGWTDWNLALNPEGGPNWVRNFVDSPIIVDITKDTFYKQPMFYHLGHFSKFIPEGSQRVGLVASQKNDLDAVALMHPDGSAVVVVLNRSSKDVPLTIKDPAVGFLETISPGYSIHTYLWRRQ
Recorded pIC50 for compounds tested on Lysosomal acid glucosylceramidase (Homo sapiens, UniProt P04062), drawn from a number of studies.
Note on pIC50: it is the negative log10 of concentration, concentration in mol/L.

Below, each entry is followed by its recorded pIC50 result.
# input Which pIC50 value is on record for "CCCCCCCCC[C@H]1N[C@H](CO)[C@@H](O)[C@H](O)[C@H]1O" ?
# output 6.57

# input Which pIC50 value is on record for "Cc1ccc(Sc2cccc3nc(N)nc(N)c23)cc1" ?
# output 5.11

# input Which pIC50 value is on record for "C[C@H]1N[C@H](CO)[C@@H](O)[C@H](O)[C@H]1O" ?
# output 3.05

Further cases:
# input Which pIC50 value is on record for "CCC[C@H]1N[C@H](CO)[C@@H](O)[C@H](O)[C@H]1O" ?
# output 3.40

# input Which pIC50 value is on record for "O=C(Nc1nccs1)c1ccc(NS(=O)(=O)c2ccc(Cl)cc2)cc1" ?
# output 5.89
